Measured viability, T/C by item
# Tested on: 362531-283-R-J2-PDC complex spheroid viability
# protocolText: Anticancer human tumor 362531-283-R-J2-PDC patient-derived colon adenocarcinoma cell line growth inhibition [RAS]
# measurementParameters: second compound 0.0316 µM; first compound 0.1 µM; active compounds read low
Only the number, expressed in %, is required.

// worked examples, viability, T/C included
| compound | quantityKind | valueUnit | endpointValue |
| --- | --- | --- | --- |
| CC(=O)OC12COC1CC(O)C1(C)C(=O)C(O)C3=C(C)C(OC(=O)C(O)C(NC(=O)OC(C)(C)C)c4ccccc4)CC(O)(C(OC(=O)c4ccccc4)C21)C3(C)C (centres undefined) + C=CC(=O)N1CCN(c2nc(OCC3CCCN3C)nc3c(F)c(-c4nc(N)cc(C)c4C(F)(F)F)c(Cl)cc23)C(C)C1 | viability, T/C | % | 94.3 |
| CCN1CCN(Cc2ccc(Nc3ncc(F)c(-c4cc(F)c5nc(C)n(C(C)C)c5c4)n3)nc2)CC1 + C=CC(=O)N1CCN(c2nc(OCC3CCCN3C)nc3c(F)c(-c4nc(N)cc(C)c4C(F)(F)F)c(Cl)cc23)C(C)C1 | viability, T/C | % | 68.3 |
| CC(=O)OC12COC1CC(O)C1(C)C(=O)C(O)C3=C(C)C(OC(=O)C(O)C(NC(=O)OC(C)(C)C)c4ccccc4)CC(O)(C(OC(=O)c4ccccc4)C21)C3(C)C (centres undefined) + C#Cc1c(F)ccc2cc(O)cc(-c3ncc4c(N5CC6CCC(C5)N6)nc(OCC56CCCN5CC(F)C6)nc4c3F)c12 | viability, T/C | % | 76.4 |

For the next question, use this compound.
What measured viability, T/C goes with CC(Nc1ccc2c(c1)OCCn1cc(N3C(=O)OCC3C(F)F)nc1-2)C(N)=O (centres undefined) + C#Cc1c(F)ccc2cc(O)cc(-c3ncc4c(N5CC6CCC(C5)N6)nc(OCC56CCCN5CC(F)C6)nc4c3F)c12 ?
88.4

* * *

# System: 362531-283-R-J2-PDC complex spheroid viability
# protocolText: Anticancer human tumor 362531-283-R-J2-PDC cell line growth inhibition [RAS];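 further: spheroids exposed to the agents for 7 days before readout; luminescence viability as percent of DMSO vehicle control wells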
# measurementParameters: second compound 1 µM; first compound 0.0316 µM; active compounds read low
quantityKind: viability, T/C (%)
Only the number, expressed in %, is required.

// worked examples, viability, T/C included
| compound | endpointValue |
| --- | --- |
| CC(C)n1nc(-c2ccc3oc(N)nc3c2)c2c(N)ncnc21 + C=CC(=O)N1CCN(c2nc(OCC3CCCN3C)nc3c(F)c(-c4nc(N)cc(C)c4C(F)(F)F)c(Cl)cc23)C(C)C1 | 49.6 |
| C=CC(=O)Nc1cc(Nc2nccc(-c3cn(C)c4ccccc34)n2)c(OC)cc1N(C)CCN(C)C + C=CC(=O)N1CCN(c2nc(OCC3CCCN3C)nc3c(F)c(-c4nc(N)cc(C)c4C(F)(F)F)c(Cl)cc23)C(C)C1 | 97.4 |

For the next question, use this compound.
What measured viability, T/C goes with O=C(c1ccc(F)c(F)c1Nc1ccc(I)cc1F)N1CC(O)([C@@H]2CCCCN2)C1 + C=CC(=O)N1CCN(c2nc(OCC3CCCN3C)nc3c(F)c(-c4nc(N)cc(C)c4C(F)(F)F)c(Cl)cc23)C(C)C1 ?
81.1
